measured.on: wild-type human melanocortin 4 receptor (WT-hMC4R) (Homo sapiens, UniProt P32245)
Construct: cDNA from UMR cDNA resource center
Sequence (P32245 whole entry): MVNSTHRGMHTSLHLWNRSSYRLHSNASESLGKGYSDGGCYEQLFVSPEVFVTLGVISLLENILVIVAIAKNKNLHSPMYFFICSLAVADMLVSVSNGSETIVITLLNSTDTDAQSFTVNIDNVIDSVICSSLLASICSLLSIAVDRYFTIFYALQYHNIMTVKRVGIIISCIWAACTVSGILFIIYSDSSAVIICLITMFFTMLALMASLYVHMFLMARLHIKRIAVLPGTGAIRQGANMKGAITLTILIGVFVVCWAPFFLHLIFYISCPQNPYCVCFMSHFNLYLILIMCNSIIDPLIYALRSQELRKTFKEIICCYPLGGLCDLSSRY
procedure.details: Cyclic AMP assay (HTRF), antagonist competition against NDP-α-MSH
conditions: HEK293T cells expressing double-tagged WT-hMC4R; cAMP accumulation; 1 hour compound then 4 nM NDP-α-MSH 30 min
pIC50: −log10 of the molar value.
result.type: pIC50

compound	pIC50
CC(C)CCN(CCC(C)C)C(=O)c1ccn2nc(Br)c(/C=C/CN3CCCCC3)c2c1 [Example 132]	5.30 to 6.00
CCCCN(CCCC)C(=O)c1ccn2nc(-c3ccc(F)cc3)c(CCCN3CCCCC3)c2c1 [Example 48]	6.00 to 6.30
CC(C)CCN(CCC(C)C)Cc1ccn2nc(-c3ccccc3)c(CCCN3CCCCC3)c2c1 [Example 144]	4.82 to 5.30

// below: pIC50 requested for another compound
What does the record list as pIC50 for COc1ccc(-c2nn3ccc(C(=O)N(CCC(C)C)CCC(C)C)cc3c2C#CCN2CCCCC2)cc1 [Example 109] ?
5.30 to 6.00
